Catalogue of melting point values

COMPOUND: Cc1ccc(C[C@H]2NC(=O)CN(Cc3ccccc3)C2=O)cc1C
melting point: 191 to 192 °C
--
COMPOUND: CSc1ccc(-c2c(Cl)nc(Cl)nc2-c2ccc(Cl)cc2)cc1
melting point: 144 to 146 °C
--
COMPOUND: Cc1ccnc(N2CCN(CCCC3CNc4c(ccc(C)c4-c4cc(C)c(O)c(C)c4)O3)CC2)c1 (stereo not given)
melting point: 110 °C
--
COMPOUND: CC1(C)CC(=O)c2c(C3CCCCC3)sc(C#N)c2C1
melting point: 129 to 132 °C

Now consider a different compound.
Look up melting point for this compound: COc1nc2ccccn2c(=O)c1-c1ccc(Cl)cc1 149 to 151 °C
